# protocol.summary: oral vs intravenous two-way crossover clinical trial, pharmacokinetics / bioavailability
# Assay type: in vivo
# reported.conditions: human, blood; healthy adults, intravenous administration (40 mg)

compound | readout.units | AUC(0-t)
CNCc1cn(S(=O)(=O)c2cccc(F)c2)c(-c2ccc(F)cc2F)c1OC [Fexuprazan] | ng·h/mL | 1110

---

# protocol.summary: single intravenous dose-escalation clinical trial, pharmacokinetics
# Assay type: in vivo
# reported.conditions: human, blood; healthy adults, single intravenous 10 mg
# Text: In order to confirm the safety/PK/PD of the compound of the present invention during intravenous administration, the clinical trial was designed with random assignment, double-blind, placebo-controlled, single dose, and stepwise dose-escalation in healthy adults (Korean/Chinese) between the ages of 19 and 50. […]
metric: clearance (mL/min)

entry.smiles | recorded.number
CNCc1cn(S(=O)(=O)c2cccc(F)c2)c(-c2ccc(F)cc2F)c1OC | 702
